Data provenance is patent US20120172340A1.

Biological target: human SIRT5 (Homo sapiens)
Sequence (Q9NXA8 37-310): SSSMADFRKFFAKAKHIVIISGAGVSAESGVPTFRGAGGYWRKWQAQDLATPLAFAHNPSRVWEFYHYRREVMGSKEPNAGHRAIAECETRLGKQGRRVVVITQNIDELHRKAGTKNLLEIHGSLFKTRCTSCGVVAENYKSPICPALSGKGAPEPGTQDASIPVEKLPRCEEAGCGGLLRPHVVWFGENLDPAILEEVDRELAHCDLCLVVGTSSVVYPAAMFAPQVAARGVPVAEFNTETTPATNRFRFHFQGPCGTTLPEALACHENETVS
Assay: SIRT5 rate measurement, fluorogenic p53-382 peptide deacetylation
Format: biochemical
Set-up: His6 (histidine tag, 2.5 kDa) (N); made in house; host or cells: E. coli
Conditions: 200 μM test compounds; 500 μM NAD+, 100 μM p53-382 peptide
Lab note: anything with SIRT5 Ratio of Control Rates Mean ± SE Compounds at 200 μM below 0.8 is marked 1.0; values at 0.8 or higher are marked 0.0.

> print(dat)
                                   compound  class
1  O=C(O)c1ccc(/C=C/c2cc(O)cc(O)c2)cc1 [BML-238, 3,5-Dihydroxy-4′-carboxy-trans-stilbene]    0.0
2  CC(=O)Oc1cc(O)cc(/C=C/c2ccc(O)cc2)c1 [BML-227, 3,4′-Dihydroxy-5-acetoxy-trans-stilbene]    0.0
3  CCc1ccc(/C=C/c2cc(O)cc(O)c2)cc1 [BML-225, 3,5-Dihydroxy-4′-ethyl-trans-stilbene]    0.0
4               Oc1cc(O)cc(/C=C/C2CCCCC2)c1    0.0
5  Oc1ccc(/C=C/c2ccccc2)cc1O [3,4-Dihydroxy-trans-stilbene]    1.0
6  O=c1c(O)c(-c2ccc(O)c(O)c2)oc2cc(O)cc(O)c12 [Quercetin, 3,5,7,3′,4′-Pentahydroxyflavone]    0.0
